target: Plasminogen (Homo sapiens)
Sequence (P00747 97-580 limits assumed): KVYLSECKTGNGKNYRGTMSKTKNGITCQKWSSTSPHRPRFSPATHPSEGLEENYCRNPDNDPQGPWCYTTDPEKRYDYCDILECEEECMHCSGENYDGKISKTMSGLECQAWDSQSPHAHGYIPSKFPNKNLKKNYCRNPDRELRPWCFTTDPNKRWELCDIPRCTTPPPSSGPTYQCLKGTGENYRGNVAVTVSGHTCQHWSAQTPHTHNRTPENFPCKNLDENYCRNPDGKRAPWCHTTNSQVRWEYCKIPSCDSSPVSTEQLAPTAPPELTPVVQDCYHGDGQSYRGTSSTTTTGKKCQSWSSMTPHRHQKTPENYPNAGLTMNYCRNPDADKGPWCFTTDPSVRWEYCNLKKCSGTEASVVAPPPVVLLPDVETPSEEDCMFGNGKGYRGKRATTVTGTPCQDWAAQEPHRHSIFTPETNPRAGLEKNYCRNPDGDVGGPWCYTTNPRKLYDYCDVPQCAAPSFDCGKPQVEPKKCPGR
Sequence (P00747 581-810 limits assumed): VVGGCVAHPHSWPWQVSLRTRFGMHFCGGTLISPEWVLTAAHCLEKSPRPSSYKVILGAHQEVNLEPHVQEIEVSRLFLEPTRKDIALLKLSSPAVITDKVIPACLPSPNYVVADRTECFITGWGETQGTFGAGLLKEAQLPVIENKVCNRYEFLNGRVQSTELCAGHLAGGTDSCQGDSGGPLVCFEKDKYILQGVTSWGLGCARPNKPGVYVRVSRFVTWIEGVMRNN
Entry class follows Ki: group A = under 800 nM, group B = from 800 nM up to 2000 nM, group C = 2000 nM and over

{"columns": ["compound", "assigned.class"],
 "data": [
  ["CCc1ccc(NC(=O)c2ccc3cc(C(=N)N)ccc3c2)cc1", "group C"]
]}

# input Each compound maps to one class by Ki. Which class for `N=C(N)c1ccc2cc(C(=O)Nc3ccc4c(c3)C(C3CCCC3)=NCC4)ccc2c1` ?
# output group A

# input Quick one: `N=C(N)c1ccc2cc(C(=O)Nc3ccc(CO)cc3)ccc2c1`
# output group C

# input # repeat for `CC(C)Oc1cc(NC(=O)c2ccc3cc(C(=N)N)ccc3c2)cc(OC2CCCC2)c1`
# output group B

# input Moving on to `N=C(N)c1ccc2cc(C(=O)Nc3ccc4c(c3)CCNC4)ccc2c1`
# output group B

# input Please give the result for `CC(C)Oc1cc(NC(=O)c2ccc3cc(C(=N)N)ccc3c2)cc(OC(C)C)c1` too.
# output group B

# input And what about the compound CC(C)C1NCCc2ccc(NC(=O)c3ccc4cc(C(=N)N)ccc4c3)cc21 (centres undefined) ?
# output group A

# input And what about the compound `CC(C)C1=NCCc2ccc(NC(=O)c3ccc4cc(C(=N)N)ccc4c3)cc21` ?
# output group A

* * *

Reported values of pKi for individual entries
molecular target: Prothrombin (Homo sapiens)
The meaning of pKi here: minus log10 of the concentration in molar units.

# input # lookup: pKi of `N=C(N)c1ccc2cc(C(=O)Nc3ccc4c(c3)C(C3CCCC3)=NCC4)ccc2c1`
# output 5.27

# input Lookup `N=C(N)c1ccc2cc(C(=O)Nc3ccccc3)ccc2c1`
# output 5.25

# input Now give it for CCC1CNCc2ccc(NC(=O)c3ccc4cc(C(=N)N)ccc4c3)cc21 (stereo not drawn) too.
# output 5.19

* * *

molecular target: Plasma kallikrein (Homo sapiens, UniProt P03952); assay: Binding affinity against human plasma kallikrein.
Sequence (P03952 20-390 limits assumed): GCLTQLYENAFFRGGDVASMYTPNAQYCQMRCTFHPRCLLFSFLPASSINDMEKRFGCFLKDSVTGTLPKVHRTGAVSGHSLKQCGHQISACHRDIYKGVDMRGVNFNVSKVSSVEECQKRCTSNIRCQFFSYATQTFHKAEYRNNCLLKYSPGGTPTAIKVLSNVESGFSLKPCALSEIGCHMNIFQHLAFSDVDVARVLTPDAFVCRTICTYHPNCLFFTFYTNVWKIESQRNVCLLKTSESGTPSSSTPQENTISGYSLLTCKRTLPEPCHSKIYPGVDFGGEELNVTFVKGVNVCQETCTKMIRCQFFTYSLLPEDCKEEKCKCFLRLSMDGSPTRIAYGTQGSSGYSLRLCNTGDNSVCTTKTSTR
Sequence (P03952 391-638 limits assumed): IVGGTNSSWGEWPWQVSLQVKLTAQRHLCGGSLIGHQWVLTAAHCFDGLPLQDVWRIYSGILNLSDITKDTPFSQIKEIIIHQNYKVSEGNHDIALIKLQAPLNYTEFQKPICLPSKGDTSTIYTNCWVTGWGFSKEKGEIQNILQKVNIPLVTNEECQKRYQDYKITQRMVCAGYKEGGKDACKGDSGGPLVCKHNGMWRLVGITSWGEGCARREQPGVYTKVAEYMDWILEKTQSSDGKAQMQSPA
property.label: Ki
Quick note: number first, unit second.

# input # query: Ki of entry `N=C(N)c1ccc2ccccc2c1`
# output 22.5 µM

# input Another: `CC(C)Oc1cc(NC(=O)c2ccc3cc(C(=N)N)ccc3c2)cc(OC2CCCC2)c1`
# output 3.33 µM

# input # iterate: `N=C(N)c1ccc2cc(C(=O)Nc3ccc4c(c3)C(C3CCCC3)=NCC4)ccc2c1`
# output 0.849 µM

# input Thanks! And CC(C)C1NCCc2ccc(NC(=O)c3ccc4cc(C(=N)N)ccc4c3)cc21 (stereo not drawn) ?
# output 0.23 µM

# input Next record, please: `CCc1ccc(NC(=O)c2ccc3cc(C(=N)N)ccc3c2)cc1`
# output 18.1 µM

* * *

Entries with their measured log10 Ki, system Urokinase-type plasminogen activator (Homo sapiens):
Friendly reminder: values = log10 of Ki, unit nM.

{"columns": ["molecule", "log10 Ki"],
 "data": [
  ["N=C(N)c1ccc2cc(C(=O)Nc3cccc(CC4CCCC4)c3)ccc2c1", 2.22]
]}

# input Which measured log10 Ki value corresponds to `CCc1ccc(NC(=O)c2ccc3cc(C(=N)N)ccc3c2)cc1` ?
# output 2.87

# input Further, for `N=C(N)c1ccc2cc(C(=O)Nc3cccc(Oc4ccccc4)c3)ccc2c1` ?
# output 2.71

# input Now this one: CC(C)CC1NCCc2ccc(NC(=O)c3ccc4cc(C(=N)N)ccc4c3)cc21 (stereo unspecified)
# output 2.09

# input Please do the same for `CC(C)Oc1cc(NC(=O)c2ccc3cc(C(=N)N)ccc3c2)cc(OC(C)C)c1` as well.
# output 1.45

* * *

Tissue-type plasminogen activator (Homo sapiens, UniProt P00750): recorded Ki for assorted compounds
Sequence (P00750 whole entry): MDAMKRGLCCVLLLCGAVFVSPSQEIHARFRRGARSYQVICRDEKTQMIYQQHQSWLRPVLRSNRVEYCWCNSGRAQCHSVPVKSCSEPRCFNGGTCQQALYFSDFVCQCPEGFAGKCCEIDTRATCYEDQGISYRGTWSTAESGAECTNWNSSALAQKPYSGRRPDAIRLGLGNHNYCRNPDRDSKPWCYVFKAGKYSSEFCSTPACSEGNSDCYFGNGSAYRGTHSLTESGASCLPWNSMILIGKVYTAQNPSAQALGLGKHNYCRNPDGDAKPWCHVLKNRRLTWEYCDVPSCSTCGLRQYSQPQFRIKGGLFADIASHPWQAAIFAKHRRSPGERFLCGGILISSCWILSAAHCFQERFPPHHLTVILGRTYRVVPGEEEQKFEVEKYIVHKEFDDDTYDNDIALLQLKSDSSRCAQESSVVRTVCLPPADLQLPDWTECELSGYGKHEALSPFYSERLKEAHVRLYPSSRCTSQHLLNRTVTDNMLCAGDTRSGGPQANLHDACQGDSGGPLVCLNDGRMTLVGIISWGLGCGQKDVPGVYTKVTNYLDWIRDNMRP
Unit µM implied. Number only.

Past entries and their recorded results:
{"columns": ["compound", "assayed.system", "property.label", "measured.number"],
 "data": [
  ["CC(C)Oc1cc(NC(=O)c2ccc3cc(C(=N)N)ccc3c2)cc(OC2CCCC2)c1", "Tissue-type plasminogen activator (Homo sapiens, UniProt P00750)", "Ki", 0.844],
  ["N=C(N)c1ccc2cc(C(=O)Nc3ccc(CO)cc3)ccc2c1", "Tissue-type plasminogen activator (Homo sapiens, UniProt P00750)", "Ki", 8.35],
  ["CC(C)Oc1cc(NC(=O)c2ccc3cc(C(=N)N)ccc3c2)cc(OC(C)C)c1", "Tissue-type plasminogen activator (Homo sapiens, UniProt P00750)", "Ki", 0.79],
  ["CC(C)C1=NCCc2ccc(NC(=O)c3ccc4cc(C(=N)N)ccc4c3)cc21", "Tissue-type plasminogen activator (Homo sapiens, UniProt P00750)", "Ki", 1.84]
]}

# input Returns the measured Ki for the input compound. Input: CC(C)C1NCCc2ccc(NC(=O)c3ccc4cc(C(=N)N)ccc4c3)cc21 (configuration not stated)
# output 1.12

# input Next record, please: `N=C(N)c1ccc2cc(C(=O)Nc3ccc4c(c3)CCNC4)ccc2c1`
# output 2.32

* * *

target: Prothrombin (Homo sapiens, UniProt P00734)
Entries and their measured pKi follow.
Remember the convention: pKi equals -log10 of concentration in molar.

# annotated cases, reported pKi shown
{"columns": ["molecule", "pKi"],
 "data": [
  ["N=C(N)c1ccc2cc(C(=O)Nc3ccc4c(c3)CCNC4)ccc2c1", 5.16],
  ["CC(C)Oc1cc(NC(=O)c2ccc3cc(C(=N)N)ccc3c2)cc(OC(C)C)c1", 4.66],
  ["CC(C)Oc1cc(NC(=O)c2ccc3cc(C(=N)N)ccc3c2)cc(OC2CCCC2)c1", 4.67],
  ["N=C(N)c1ccc2cc(C(=O)Nc3ccc4c(c3)C(C3CCCC3)NCC4)ccc2c1 (stereo not given)", 4.99],
  ["N=C(N)c1ccc2cc(C(=O)Nc3ccc(C(N)=O)cc3)ccc2c1", 5.63],
  ["CC(C)C1=NCCc2ccc(NC(=O)c3ccc4cc(C(=N)N)ccc4c3)cc21", 5.30]
]}

# input pKi of `N#Cc1ccc2cc(NC(=O)c3ccccc3)ccc2c1` on Prothrombin (Homo sapiens, UniProt P00734)?
# output 4.75

# input Ok, now `CCc1ccc(NC(=O)c2ccc3cc(C(=N)N)ccc3c2)cc1`
# output 4.36

# input Thanks! And `CC(C)Oc1cccc(NC(=O)c2ccc3cc(C(=N)N)ccc3c2)c1` ?
# output 5.46

* * *

target: Plasma kallikrein (Homo sapiens); experiment: Binding affinity against human plasma kallikrein.
property.label: pKi
# log scale: pKi equals minus log10 of the concentration in mol/L

// below: answered compounds
{"columns": ["compound", "pKi"],
 "data": [
  ["N=C(N)c1ccc2cc(C(=O)Nc3ccc(CO)cc3)ccc2c1", 5.59],
  ["N=C(N)c1ccc2cc(C(=O)Nc3ccccc3)ccc2c1", 5.60],
  ["CC(C)C1=NCCc2ccc(NC(=O)c3ccc4cc(C(=N)N)ccc4c3)cc21", 6.36],
  ["N=C(N)c1ccc2cc(C(=O)Nc3ccc4c(c3)CCNC4)ccc2c1", 6.95],
  ["N=C(N)c1ccc2cc(C(=O)Nc3ccc4c(c3)C(C3CCCC3)NCC4)ccc2c1 (stereo not drawn)", 6.40],
  ["N=C(N)c1ccc2cc(C(=O)Nc3ccc(C(N)=O)cc3)ccc2c1", 5.61],
  ["CCC1CNCc2ccc(NC(=O)c3ccc4cc(C(=N)N)ccc4c3)cc21 (stereo not drawn)", 6.84],
  ["CC(C)Oc1cccc(NC(=O)c2ccc3cc(C(=N)N)ccc3c2)c1", 5.86],
  ["N#Cc1ccc2cc(NC(=O)c3ccccc3)ccc2c1", 5.10],
  ["CC(C)Oc1cc(NC(=O)c2ccc3cc(C(=N)N)ccc3c2)cc(OC(C)C)c1", 5.37]
]}

# input Need pKi of `N=C(N)c1ccc2cc(C(=O)Nc3cccc(OC4CCCC4)c3)ccc2c1` , thanks.
# output 5.57

# input Now the same for `[H]/N=C(\N)c1ccc2cc(C(=O)Nc3ccc(CN)cc3)ccc2c1`
# output 5.14

# input Moving on to the next compound: CC(C)CC1NCCc2ccc(NC(=O)c3ccc4cc(C(=N)N)ccc4c3)cc21 (stereo not drawn)
# output 5.87

* * *

Here we list molecules with their recorded Ki when tested on UniProtKB P00749.
Numeric answer only, unit nM assumed.

{"columns": ["molecule", "measurement.units", "Ki"],
 "data": [
  ["CN(C(=O)c1ccc2cc(C(=N)N)ccc2c1)c1ccccc1", "nM", 15500],
  ["CC(C)Oc1cc(NC(=O)c2ccc3cc(C(=N)N)ccc3c2)cc(OC2CCCC2)c1", "nM", 22]
]}

# input Suppose we examine the molecule `CNC(=O)c1ccc2cc(C(=N)N)ccc2c1` ; what Ki value has been reported?
# output 8700

# input Now the same for `N=C(N)c1ccc2cc(C(=O)Nc3ccc4c(c3)C(C3CCCC3)=NCC4)ccc2c1`
# output 35.5

# input Now the molecule N=C(N)c1ccc2cc(C(=O)Nc3ccc4c(c3)C(C3CCCC3)NCC4)ccc2c1 (stereo unspecified)
# output 26.5

# input What do you have for `COc1cccc(NC(=O)c2ccc3cc(C(=N)N)ccc3c2)c1` ?
# output 233
